The values you see were collected from BindingDB's records for aid1799744.

system name: Mitogen-activated protein kinase 1 (Homo sapiens, UniProt P28482)
Sequence (P28482 whole entry): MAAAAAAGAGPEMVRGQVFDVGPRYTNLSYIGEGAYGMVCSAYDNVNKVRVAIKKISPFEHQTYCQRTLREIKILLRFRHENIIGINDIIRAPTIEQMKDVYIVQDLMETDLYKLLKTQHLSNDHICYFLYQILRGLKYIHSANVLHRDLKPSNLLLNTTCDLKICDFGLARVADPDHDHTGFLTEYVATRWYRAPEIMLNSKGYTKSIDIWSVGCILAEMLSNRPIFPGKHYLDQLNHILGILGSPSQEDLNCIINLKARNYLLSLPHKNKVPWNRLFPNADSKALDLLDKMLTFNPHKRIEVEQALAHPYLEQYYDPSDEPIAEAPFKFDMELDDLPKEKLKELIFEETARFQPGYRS
test summary: Assay 1
pKi: −log10 of the molar value.
recorded endpoint: pKi

Please review the following examples before continuing.
| compound | recorded endpoint | result number |
| --- | --- | --- |
| Cc1ccnc(Nc2ncc(C)c(-c3c[nH]c(C(=O)N[C@H](CO)c4ccccc4)c3)n2)c1 | pKi | 8.40 |
| CC[C@@H](COC)Nc1ncc(C)c(-c2c[nH]c(C(=O)N[C@H](CO)c3cccc(Cl)c3)c2)n1 | pKi | 8.40 |
| CCN(C)C(=O)c1cc(-c2[nH]ncc2-c2ccc(F)c(Cl)c2)c[nH]1 | pKi | 6.60 |
| Cc1cnc(NCc2ccccc2)nc1-c1c[nH]c(C(=O)N[C@H](CO)c2ccccc2)c1 | pKi | 7.85 |
| CC(=O)OC[C@H](C)Nc1ncc(C)c(-c2c[nH]c(C(=O)N[C@H](COC(C)=O)c3cccc(Cl)c3)c2)n1 | pKi | 6.48 |
| Cc1ccc(Nc2ncc(C)c(-c3c[nH]c(C(=O)N[C@H](CO)c4cccc(C)c4)c3)n2)cc1 | pKi | 8.70 |

[P] O=C(N[C@H](CO)c1cccc(Cl)c1)c1cc(-c2ncnc(Nc3ccccc3)n2)c[nH]1
[Q] CCONc1ncc(C)c(-c2c[nH]c(C(=O)N[C@H](CO)c3cccc(Cl)c3)c2)n1
Lookup: Which gives the smaller pKi number: P or Q ? Answer format: the label of the selected item.
Found: Q
(Q: 8.22, P: 8.70)
